protocol.notes: Oral bioavailability in rat at 10 mg/kg, po
Assay type: ADME, organism-based
applied.conditions: in vivo
measured.metric: bioavailability (%)

[[record]]
mol_smiles = "COc1cc(-c2csc3c(/C=C/CN4CCC(O)CC4)cnc(N)c23)ccc1NC(=O)c1cc2ccccc2n1C"
measured_metric = "bioavailability"
reading = 21


====

target.of.assay: Tyrosine-protein kinase Lck (Homo sapiens, UniProt P06239)
Sequence (P06239 whole entry): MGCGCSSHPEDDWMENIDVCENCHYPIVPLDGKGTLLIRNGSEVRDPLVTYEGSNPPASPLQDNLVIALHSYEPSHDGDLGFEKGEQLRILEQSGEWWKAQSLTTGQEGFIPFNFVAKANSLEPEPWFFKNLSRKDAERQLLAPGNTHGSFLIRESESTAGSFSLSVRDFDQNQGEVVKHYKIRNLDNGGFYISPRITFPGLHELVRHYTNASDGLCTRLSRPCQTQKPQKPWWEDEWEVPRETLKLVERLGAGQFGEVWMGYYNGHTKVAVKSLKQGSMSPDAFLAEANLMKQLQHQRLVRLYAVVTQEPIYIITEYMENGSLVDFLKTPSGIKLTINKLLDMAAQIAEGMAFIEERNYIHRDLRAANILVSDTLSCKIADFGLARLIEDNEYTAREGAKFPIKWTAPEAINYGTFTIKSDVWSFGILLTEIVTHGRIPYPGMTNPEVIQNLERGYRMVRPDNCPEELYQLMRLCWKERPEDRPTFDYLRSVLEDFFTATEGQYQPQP
protocol.notes: Inhibition of Lck
Item-by-item account of IC50
measured.metric: IC50 (nM)

[[record]]
mol_smiles = "COc1cc(-c2csc3c(/C=C/CN4CCN(C)C(=O)C4)cnc(N)c23)ccc1NC(=O)c1cc2ccccc2n1C"
target_of_assay = "Tyrosine-protein kinase Lck (Homo sapiens, UniProt P06239)"
reading = 1520

[[record]]
mol_smiles = "COc1cc(-c2csc3c(C(=O)N4CCN(C)CC4)cnc(N)c23)ccc1NC(=O)c1cc2ccccc2n1C"
target_of_assay = "Tyrosine-protein kinase Lck (Homo sapiens, UniProt P06239)"
reading = 17600

[[record]]
mol_smiles = "COc1cc(-c2csc3c(/C=C/CNC(=O)Nc4ccccc4)cnc(N)c23)ccc1NC(=O)c1cc2ccccc2n1C"
target_of_assay = "Tyrosine-protein kinase Lck (Homo sapiens, UniProt P06239)"
reading = 6700

[[record]]
mol_smiles = "COc1cc(-c2nn(C)c3ncnc(N)c23)ccc1NC(=O)c1cc2ccccc2n1C"
target_of_assay = "Tyrosine-protein kinase Lck (Homo sapiens, UniProt P06239)"
reading = 31

[[record]]
mol_smiles = "COc1cc(-c2csc3c(C(N)=O)cnc(N)c23)ccc1NC(=O)c1cc2ccccc2n1C"
target_of_assay = "Tyrosine-protein kinase Lck (Homo sapiens, UniProt P06239)"
reading = 380

[[record]]
mol_smiles = "COc1cc(-c2csc3c(/C=C/CNC4CCNCC4)cnc(N)c23)ccc1NC(=O)c1cc2ccccc2n1C"
target_of_assay = "Tyrosine-protein kinase Lck (Homo sapiens, UniProt P06239)"
reading = 190

[[record]]
mol_smiles = "COc1cc(-c2csc3c(C(=O)NCCN4CCCC4)cnc(N)c23)ccc1NC(=O)c1cc2ccccc2n1C"
target_of_assay = "Tyrosine-protein kinase Lck (Homo sapiens, UniProt P06239)"
reading = 240


====

pIC50: −log10 of the molar value.
Below are compounds with their pIC50 as measured on Tyrosine-protein kinase Lyn (Homo sapiens, UniProt P07948).
Sequence (P07948 whole entry): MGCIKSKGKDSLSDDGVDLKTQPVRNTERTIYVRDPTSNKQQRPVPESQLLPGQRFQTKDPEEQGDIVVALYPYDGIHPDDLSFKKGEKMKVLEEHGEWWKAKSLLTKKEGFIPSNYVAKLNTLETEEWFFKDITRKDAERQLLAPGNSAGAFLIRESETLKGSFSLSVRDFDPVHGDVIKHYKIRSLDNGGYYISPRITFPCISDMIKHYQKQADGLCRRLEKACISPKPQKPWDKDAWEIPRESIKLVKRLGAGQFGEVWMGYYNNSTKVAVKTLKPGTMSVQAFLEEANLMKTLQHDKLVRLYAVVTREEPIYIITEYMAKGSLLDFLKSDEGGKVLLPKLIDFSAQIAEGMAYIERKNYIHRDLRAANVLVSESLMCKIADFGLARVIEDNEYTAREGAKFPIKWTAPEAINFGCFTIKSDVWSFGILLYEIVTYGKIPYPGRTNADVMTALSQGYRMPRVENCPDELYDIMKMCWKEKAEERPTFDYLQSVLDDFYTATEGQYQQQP
measured.metric: pIC50

[[record]]
mol_smiles = "COc1cc(-c2csc3c(/C=C/CNC4CCNCC4)cnc(N)c23)ccc1NC(=O)c1cc2ccccc2n1C"
reading = 5.43

[[record]]
mol_smiles = "CCN(CC)C/C=C/c1cnc(N)c2c(-c3ccc(NC(=O)c4cc5ccccc5n4C)c(OC)c3)csc12"
reading = 5.93


====

protocol.notes: Tmax in rat at 5 mg/kg, iv or 10 mg/kg, po
Format: ADME, organism-based
applied.conditions: in vivo
measured.metric: Tmax (h)

[[record]]
mol_smiles = "COc1cc(-c2csc3c(/C=C/CN4CCC(O)CC4)cnc(N)c23)ccc1NC(=O)c1cc2ccccc2n1C"
measured_metric = "Tmax"
reading = 5.3


====

Item-by-item account of pIC50
target.of.assay: Tyrosine-protein kinase Fyn (Homo sapiens)
Sequence (P06241 whole entry): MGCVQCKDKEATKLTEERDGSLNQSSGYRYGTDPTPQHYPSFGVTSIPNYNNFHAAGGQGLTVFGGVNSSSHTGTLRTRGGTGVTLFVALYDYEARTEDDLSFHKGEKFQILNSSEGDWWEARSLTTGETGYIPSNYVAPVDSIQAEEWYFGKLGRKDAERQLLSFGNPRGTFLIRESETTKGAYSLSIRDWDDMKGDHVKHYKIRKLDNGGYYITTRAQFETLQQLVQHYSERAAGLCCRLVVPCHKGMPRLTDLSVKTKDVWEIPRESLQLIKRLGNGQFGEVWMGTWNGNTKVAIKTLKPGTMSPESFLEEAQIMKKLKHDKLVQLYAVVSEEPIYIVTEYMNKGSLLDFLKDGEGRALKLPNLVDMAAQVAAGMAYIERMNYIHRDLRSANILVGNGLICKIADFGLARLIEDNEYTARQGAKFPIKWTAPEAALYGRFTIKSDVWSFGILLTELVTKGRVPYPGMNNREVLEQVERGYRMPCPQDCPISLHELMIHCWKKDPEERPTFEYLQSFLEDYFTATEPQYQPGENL
protocol.notes: Inhibition of Fyn
pIC50: −log10 of the molar value.
measured.metric: pIC50

[[record]]
mol_smiles = "COc1cc(-c2csc3c(/C=C/CNC4CCNCC4)cnc(N)c23)ccc1NC(=O)c1cc2ccccc2n1C"
measured_metric = "pIC50"
reading = 4.58

[[record]]
mol_smiles = "COc1cc(-c2csc3c(/C=C/CN[C@H]4CC[C@H](N)CC4)cnc(N)c23)ccc1NC(=O)c1cc2ccccc2n1C"
measured_metric = "pIC50"
reading = 4.59

